Biological target: TRKB (Homo sapiens, UniProt Q16620)
Construct: purchased Reaction Biology Europe GmbH
Sequence (Q16620 32-822): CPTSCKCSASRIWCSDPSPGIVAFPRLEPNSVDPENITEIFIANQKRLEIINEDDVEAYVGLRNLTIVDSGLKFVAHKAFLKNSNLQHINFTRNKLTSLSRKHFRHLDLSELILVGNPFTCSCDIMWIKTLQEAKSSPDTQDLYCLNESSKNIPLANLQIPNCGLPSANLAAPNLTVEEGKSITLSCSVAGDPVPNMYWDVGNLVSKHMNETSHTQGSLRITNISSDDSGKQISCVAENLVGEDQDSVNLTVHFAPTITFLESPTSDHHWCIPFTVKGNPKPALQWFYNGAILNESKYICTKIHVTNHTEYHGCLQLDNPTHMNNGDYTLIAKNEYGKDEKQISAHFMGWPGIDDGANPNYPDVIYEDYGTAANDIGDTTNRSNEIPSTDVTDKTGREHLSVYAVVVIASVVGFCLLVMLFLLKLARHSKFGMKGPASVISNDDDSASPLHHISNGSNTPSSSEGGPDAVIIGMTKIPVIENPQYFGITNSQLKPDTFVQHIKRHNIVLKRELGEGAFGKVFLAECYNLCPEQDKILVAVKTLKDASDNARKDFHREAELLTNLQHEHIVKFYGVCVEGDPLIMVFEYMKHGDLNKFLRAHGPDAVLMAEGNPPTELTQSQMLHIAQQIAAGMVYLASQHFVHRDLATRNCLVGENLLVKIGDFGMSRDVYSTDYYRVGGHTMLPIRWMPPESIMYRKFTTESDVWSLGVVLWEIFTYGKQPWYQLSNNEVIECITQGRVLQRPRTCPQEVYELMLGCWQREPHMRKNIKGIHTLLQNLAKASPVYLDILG
Assay: PanQinase kinase panel: TRKB
Assay type: biochemical
Conditions: read-out: INHIBITORY EFFECT @ 1 uM: TRKB
For each of the compounds below, state its inhibition at 1 µM.

// COc1ccc(F)cc1C(=O)NCc1ccc(-c2nn([C@@H](C)C(F)(F)F)c(N)c2C(N)=O)cc1 [LOXO-305, pirtobrutinib] : inhibition at 1 µM value = 50 to 69%

Consider O=C(c1ccc(Oc2ccccc2)cc1Cl)c1c[nH]c2ncnc(N[C@@H]3CC[C@@H](CO)OC3)c12 [ARQ-531] . Its measured inhibition at 1 µM is < 50%

C=CC(=O)N1CCC([C@@H]2CCNc3c(C(N)=O)c(-c4ccc(Oc5ccccc5)cc4)nn32)CC1 [Zanubrutinib] yielded inhibition at 1 µM of < 50%

Per the records, this compound ( Cc1cccnc1[C@H]1CCC[C@@H](c2ncccc2C)N1CCN1CCN(C(=O)c2ccc(-c3cc4c(-c5cccc(NC(=O)c6ccccc6)c5C)ncnc4[nH]3)cc2)CC1 [Compound I-10] ) has inhibition at 1 µM equal to < 50%

---

Record form. Attribute: inhibition at 1 µM. Fill in for each entry.
Molecular target: MINK1 (Homo sapiens, UniProt Q8N4C8)
Construct: purchased Reaction Biology Europe GmbH
Sequence (Q8N4C8 whole entry): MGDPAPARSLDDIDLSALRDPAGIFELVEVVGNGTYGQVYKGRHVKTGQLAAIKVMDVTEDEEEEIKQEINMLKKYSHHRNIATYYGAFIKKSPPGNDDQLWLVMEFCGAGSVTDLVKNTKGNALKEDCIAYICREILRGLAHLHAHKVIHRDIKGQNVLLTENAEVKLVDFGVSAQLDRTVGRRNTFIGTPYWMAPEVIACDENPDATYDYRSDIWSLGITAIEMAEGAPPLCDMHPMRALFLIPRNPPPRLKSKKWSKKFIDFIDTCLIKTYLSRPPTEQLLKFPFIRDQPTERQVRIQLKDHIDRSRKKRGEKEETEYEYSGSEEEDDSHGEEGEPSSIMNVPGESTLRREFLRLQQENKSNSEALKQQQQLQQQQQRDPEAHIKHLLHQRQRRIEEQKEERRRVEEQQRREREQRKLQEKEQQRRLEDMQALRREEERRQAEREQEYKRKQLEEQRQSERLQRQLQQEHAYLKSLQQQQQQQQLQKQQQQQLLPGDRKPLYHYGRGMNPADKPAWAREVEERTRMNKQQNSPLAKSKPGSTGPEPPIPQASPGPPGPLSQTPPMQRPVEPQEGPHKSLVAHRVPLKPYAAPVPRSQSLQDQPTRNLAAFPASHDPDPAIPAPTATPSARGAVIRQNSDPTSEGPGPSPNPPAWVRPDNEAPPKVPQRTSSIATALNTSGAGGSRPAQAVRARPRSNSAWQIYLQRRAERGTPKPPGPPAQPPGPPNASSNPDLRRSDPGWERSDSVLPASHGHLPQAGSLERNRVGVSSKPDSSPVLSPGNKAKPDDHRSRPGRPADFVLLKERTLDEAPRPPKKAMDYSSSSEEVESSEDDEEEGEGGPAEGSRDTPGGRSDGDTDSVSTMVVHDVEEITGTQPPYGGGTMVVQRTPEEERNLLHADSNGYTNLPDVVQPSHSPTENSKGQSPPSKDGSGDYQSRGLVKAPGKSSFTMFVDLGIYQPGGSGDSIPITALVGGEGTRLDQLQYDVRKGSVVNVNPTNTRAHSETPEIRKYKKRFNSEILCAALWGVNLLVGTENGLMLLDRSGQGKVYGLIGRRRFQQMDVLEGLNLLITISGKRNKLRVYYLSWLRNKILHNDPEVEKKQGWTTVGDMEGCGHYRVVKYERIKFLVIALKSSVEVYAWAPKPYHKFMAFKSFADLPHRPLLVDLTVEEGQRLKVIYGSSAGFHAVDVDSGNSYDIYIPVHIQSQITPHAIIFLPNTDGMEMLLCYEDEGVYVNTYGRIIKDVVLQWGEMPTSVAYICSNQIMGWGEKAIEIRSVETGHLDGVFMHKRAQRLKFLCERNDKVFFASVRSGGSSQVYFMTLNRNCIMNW
Experiment: PanQinase kinase panel: MINK1
Format: biochemical
Conditions: read-out: INHIBITORY EFFECT @ 1 uM: MINK1

Record `O=C(c1ccc(Oc2ccccc2)cc1Cl)c1c[nH]c2ncnc(N[C@@H]3CC[C@@H](CO)OC3)c12` , field inhibition at 1 µM: 50 to 69%

// `C=CC(=O)N1CCC([C@@H]2CCNc3c(C(N)=O)c(-c4ccc(Oc5ccccc5)cc4)nn32)CC1` : inhibition at 1 µM value = < 50%

// inhibition at 1 µM lookup, compound = `Cc1cccnc1[C@H]1CCC[C@@H](c2ncccc2C)N1CCN1CCN(C(=O)c2ccc(-c3cc4c(-c5cccc(NC(=O)c6ccccc6)c5C)ncnc4[nH]3)cc2)CC1` , result: < 50%

Reported inhibition at 1 µM ( `COc1ccc(F)cc1C(=O)NCc1ccc(-c2nn([C@@H](C)C(F)(F)F)c(N)c2C(N)=O)cc1` ) = < 50%

---

Target: BTK (Bruton tyrosine kinase) (Homo sapiens)
Construct: GST or His (the text leaves open which); purchased Reaction Biology Europe GmbH Lot 012,11; host or cells: Sf9 insect cells or E. coli (not resolved)
Sequence (Q06187 whole entry): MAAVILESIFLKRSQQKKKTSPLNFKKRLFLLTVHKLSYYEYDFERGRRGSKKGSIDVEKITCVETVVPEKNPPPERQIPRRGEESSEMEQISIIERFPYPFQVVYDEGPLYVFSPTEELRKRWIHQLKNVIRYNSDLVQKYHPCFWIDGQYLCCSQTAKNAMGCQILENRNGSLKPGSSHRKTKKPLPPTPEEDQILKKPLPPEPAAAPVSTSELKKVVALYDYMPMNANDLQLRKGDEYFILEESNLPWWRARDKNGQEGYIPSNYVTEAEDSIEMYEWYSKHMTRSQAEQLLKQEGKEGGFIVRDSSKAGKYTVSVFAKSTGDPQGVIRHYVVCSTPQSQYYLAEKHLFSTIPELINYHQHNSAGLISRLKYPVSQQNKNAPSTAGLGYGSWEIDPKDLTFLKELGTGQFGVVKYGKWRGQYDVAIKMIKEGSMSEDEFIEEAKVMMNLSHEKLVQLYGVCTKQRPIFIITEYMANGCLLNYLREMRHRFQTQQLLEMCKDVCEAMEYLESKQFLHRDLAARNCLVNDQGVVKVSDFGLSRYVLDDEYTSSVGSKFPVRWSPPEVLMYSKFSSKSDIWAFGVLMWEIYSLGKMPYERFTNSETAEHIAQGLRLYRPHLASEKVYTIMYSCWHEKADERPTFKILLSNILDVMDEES
Test: BTK screening assay (33PanQinase Activity Assay, radiometric)
Type: biochemical
Details: Inhibition of BTK, radiometric 33PanQinase Activity Assay, 3 μM ATP, 10 concentrations in singlicate, top 10 μM; read-out: 33PanQinase ® Radiometric IC50
pIC50: −log10 of the molar value.
Metric Name: pIC50

Noted for CC(=O)Nc1cccc(-c2ncnc3[nH]c(-c4ccc(C(=O)N5CCN(CCN6[C@@H](c7ncccc7C)CCC[C@H]6c6ncccc6C)CC5)cc4)cc23)c1C [Compound I-69] : its pIC50 reads 7.00 to 9.00

Record summary for Cc1cccnc1[C@H]1CCC[C@@H](c2ncccc2C)N1CCNC(=O)c1cc2c(-c3cccc(NC(=O)c4ccc(F)cc4)c3C)ncnc2[nH]1 [Compound I-87] : reported pIC50 = < 5.60

Entry under test: Cc1cc(-c2ncnc3[nH]c(C(=O)NCCCN4[C@@H](c5ncccc5C)CCC[C@H]4c4ncccc4C)cc23)ccc1CNC(=O)c1cccc(F)c1 [Compound I-82] . Its pIC50 was 6.00 to 7.00

Record Cc1cccnc1[C@H]1CCC[C@@H](c2ncccc2C)N1CCCCNC1CN(C(=O)c2cc3c(-c4cccc(NC(=O)c5ccc(F)cc5)c4C)ncnc3[nH]2)C1 [Compound I-92] . Reported pIC50: 5.60 to 6.00

For Cc1cccc(Oc2ccc(C(=O)c3c[nH]c4ncnc(N[C@@H]5CC[C@@H](C(=O)NCCCCN6[C@@H](c7ncccc7C)CCC[C@H]6c6ncccc6C)OC5)c34)c(Cl)c2)c1 [Compound I-59] the compound record lists pIC50 as 7.00 to 9.00

Kindly note the recorded pIC50 for Cc1cccnc1[C@H]1CCC[C@@H](c2ncccc2C)N1CCCN1CCN(C(=O)c2ccc(-c3cc4c(-c5cccc(NC(=O)c6ccccc6)c5C)ncnc4[nH]3)cc2)CC1 [Compound I-30] , which is 6.00 to 7.00

Item: Cc1cccnc1[C@H]1CCC[C@@H](c2ncccc2C)N1CCNC1CN(C(=O)c2ccc(-c3cc4c(-c5cccc(NC(=O)c6ccccc6)c5C)ncnc4[nH]3)cc2)C1 [Compound I-9] | pIC50: 6.00 to 7.00

Entry Cc1cc(-c2ncnc3[nH]c(S(=O)(=O)NCCN4[C@@H](c5ncccc5C)CCC[C@H]4c4ncccc4C)cc23)ccc1CNC(=O)c1ccc(C(C)(C)C)cc1 [Compound I-26] , pIC50 reported as 5.60 to 6.00

Given item Cc1cccnc1[C@H]1CCC[C@@H](c2ncccc2C)N1CCNC[C@@H]1CC[C@@H](Nc2ncnc3[nH]cc(C(=O)c4ccc(Oc5ccccc5)cc4Cl)c23)CO1 [Compound I-15] , the value recorded as its pIC50 is 5.60 to 6.00

Form: compound = Cc1cccnc1[C@H]1CCC[C@@H](c2ncccc2C)N1CCN1CCN(C(=O)c2ccc(-c3cc4c(-c5cccc(NC(=O)c6ccc(C(C)(C)C)cc6)c5C)ncnc4[nH]3)cc2)CC1 [Compound I-7] ; pIC50 = 7.00 to 9.00

pIC50 for Cc1cc(-c2ncnc3[nH]c(C(=O)NCCN4[C@@H](c5ncccc5C)CCC[C@H]4c4ncccc4C)cc23)ccc1CNC(=O)c1cccc(F)c1 [Compound I-81] is 6.00 to 7.00

pIC50 reading for Cc1cc(-c2ncnc3[nH]c(C(=O)NCCCCN4[C@@H](c5ncccc5C)CCC[C@H]4c4ncccc4C)cc23)ccc1CNC(=O)c1ccc(C(C)C)cc1 [Compound I-44] : 7.00 to 9.00

Cc1cccnc1[C@H]1CCC[C@@H](c2ncccc2C)N1CCCCNC(=O)c1cc2c(-c3cccc(NC(=O)c4ccccc4)c3C)ncnc2[nH]1 [Compound I-76] yielded pIC50 of < 5.60

For CCc1ccc(C(=O)NCc2ccc(-c3ncnc4[nH]c(C(=O)NCCCCN5[C@@H](c6ncccc6C)CCC[C@H]5c5ncccc5C)cc34)cc2C)cc1 [Compound I-48] the compound record lists pIC50 as 7.00 to 9.00

// pIC50 lookup, compound = Cc1ccccc1Oc1ccc(C(=O)c2c[nH]c3ncnc(N[C@@H]4CC[C@@H](C(=O)NCCCCN5[C@@H](c6ncccc6C)CCC[C@H]5c5ncccc5C)OC4)c23)c(Cl)c1 [Compound I-60] , result: 7.00 to 9.00

pIC50 for Cc1cccnc1[C@H]1CC(Cn2cc(-c3ccc(Oc4ccccc4)cc3)c3c(N)ncnc32)C[C@@H](c2ncccc2C)N1CCCCN (stereo partly shown) [Compound I-61] is < 5.60

Entry under test: Cc1cc(-c2ncnc3[nH]c(C(=O)NCCCN4[C@@H](c5ncccc5C)CCC[C@H]4c4ncccc4C)cc23)ccc1CNC(=O)c1ccc(C(C)(C)C)cc1 [Compound I-4] . Its pIC50 was 7.00 to 9.00

Short answer for Cc1cccnc1[C@H]1CCC[C@@H](c2ncccc2C)N1CCCCNC(=O)[C@@H]1CC[C@@H](Nc2ncnc3[nH]cc(C(=O)c4ccc(Oc5ccccc5)cc4Cl)c23)CO1 [Compound I-16] : pIC50 was 7.00 to 9.00

pIC50 recorded for this compound, Cc1cc(-c2ncnc3[nH]c(C(=O)NCCCN4[C@@H](c5ncccc5C)CCC[C@H]4c4ncccc4C)cc23)ccc1CNC(=O)c1ccc(F)cc1 [Compound I-52] , is 7.00 to 9.00

The compound listed as Cc1cccnc1[C@H]1CCC[C@@H](c2ncccc2C)N1CCCCNC[C@@H]1CC[C@@H](Nc2ncnc3[nH]cc(C(=O)c4ccc(Oc5ccccc5)cc4Cl)c23)CO1 [Compound I-13] has a reported pIC50 of 6.00 to 7.00

Form field pIC50, entry CCOC1CN(C(=O)NCc2ccc(-c3ccnc(Nc4cnn(CCN5[C@@H](c6ncccc6C)CCC[C@H]5c5ncccc5C)c4)n3)cc2C)C1 [Compound I-53] : 7.00 to 9.00

pIC50 reported for this compound Cc1cc(-c2ccnc(Nc3cnn(CCCCN4[C@@H](c5ncccc5C)CCC[C@H]4c4ncccc4C)c3)n2)ccc1CNC(=O)N1CC(OC(C)C)C1 [Compound I-29] : 7.00 to 9.00
